Biological target: Trypsin (Bos taurus, UniProt P00760)
Sequence (P00760 24-246): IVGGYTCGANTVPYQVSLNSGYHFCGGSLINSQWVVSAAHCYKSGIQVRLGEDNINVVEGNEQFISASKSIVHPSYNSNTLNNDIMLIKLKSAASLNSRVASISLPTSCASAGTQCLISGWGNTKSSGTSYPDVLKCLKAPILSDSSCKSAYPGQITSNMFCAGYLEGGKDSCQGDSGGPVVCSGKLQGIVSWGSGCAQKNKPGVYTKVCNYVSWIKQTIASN
Test: Anti-trypsin activity (hydrolysis of TAME)
Format: biochemical
Conditions: molar concentration inhibiting 50% of TAME hydrolysis; read-out: id50, Trypsin
Binned IC50; ranges: LOW (below 1000 nM), MEDIUM (1000 nM to below 5000 nM), HIGH (5000 nM or more)

**Query** Which IC50 category applies to N=C(N)C=Cc1ccc(OC(=O)CCCCCN)cc1 [Compound 8] here?
**Result** MEDIUM

**Query** Determine which band this molecule sits in: N=C(N)C=Cc1ccc(OC(=O)C2CC2)cc1 [Compound 5]
**Result** HIGH

**Query** Each molecule maps to one class by IC50. Which class for N=C(N)C=Cc1ccc(OC(=O)c2ccc(C=O)cc2)cc1 [Compound 30] ?
**Result** MEDIUM

**Query** Form: Item = N=C(N)C=Cc1ccc(OC(=O)CCCCCNC(=O)OCc2ccccc2)cc1 [Compound 7] ; Class = ?
**Result** HIGH

**Query** Which class is correct for the following molecule? Cc1ccc(C(=O)Oc2ccc(C=CC(=N)N)cc2)cc1 [Compound 20]
**Result** LOW

**Query** Would you mind sorting N=C(N)C=Cc1ccc(OC(=O)c2ccccc2)cc1 [Compound 12, 4-(β-amidinoethenyl)-phenyl benzoate] into the appropriate category?
**Result** LOW

**Query** Returns: class label. Input: N=C(N)C=Cc1ccc(OC(=O)[C@H]2CC[C@H](CN)CC2)cc1 [Compound 10]
**Result** HIGH

**Query** Which class does CCCCCCC(=O)Oc1ccc(C=CC(=N)N)cc1 [Compound 3] fall in?
**Result** HIGH

**Query** Which bin should I file N=C(N)C=Cc1ccc(OC(=O)CCCCCNC(=N)N)cc1 [Compound 9] under?
**Result** LOW

**Query** Exam item: assign N=C(N)C=Cc1ccc(OC(=O)c2ccc(NC(=N)N)cc2)cc1 [Compound 35] to the correct category.
**Result** LOW

**Query** Which category fits this record: N=C(N)C=Cc1ccc(OC(=O)CCc2ccccc2)cc1 [Compound 15]
**Result** MEDIUM

**Query** Place this molecule in its band: N=C(N)C=Cc1ccc(OC(=O)c2ccc(Cl)cc2)cc1 [Compound 39]
**Result** MEDIUM

**Query** // return the class label for CC(C)Cc1ccc(C(C)C(=O)Oc2ccc(C=CC(=N)N)cc2)cc1 (centres unmarked) [Compound 14]
**Result** HIGH

**Query** Could you place CC=CC=CC(=O)Oc1ccc(C=CC(=N)N)cc1 [Compound 4] in its proper category? Many thanks.
**Result** LOW

**Query** The entry to classify is N=C(N)C=Cc1ccc(OC(=O)c2ccc(OCc3ccccc3)cc2)cc1 [Compound 26] ; which class holds it?
**Result** LOW

**Query** For this molecule, which bin applies? N=C(N)C=Cc1ccc(OC(=O)C=Cc2cccc(C(F)(F)F)c2)cc1 [Compound 41]
**Result** MEDIUM

---

Biological target: Plasmin (Homo sapiens)
Sequence (P00747 581-810 limits assumed): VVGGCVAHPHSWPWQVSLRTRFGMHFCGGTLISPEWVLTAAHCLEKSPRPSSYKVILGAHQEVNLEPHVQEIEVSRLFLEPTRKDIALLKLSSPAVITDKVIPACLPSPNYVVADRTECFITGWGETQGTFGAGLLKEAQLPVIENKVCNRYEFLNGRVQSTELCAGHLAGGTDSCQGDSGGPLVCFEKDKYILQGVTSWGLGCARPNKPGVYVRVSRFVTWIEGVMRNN
Sequence (P00747 97-580 partner limits assumed): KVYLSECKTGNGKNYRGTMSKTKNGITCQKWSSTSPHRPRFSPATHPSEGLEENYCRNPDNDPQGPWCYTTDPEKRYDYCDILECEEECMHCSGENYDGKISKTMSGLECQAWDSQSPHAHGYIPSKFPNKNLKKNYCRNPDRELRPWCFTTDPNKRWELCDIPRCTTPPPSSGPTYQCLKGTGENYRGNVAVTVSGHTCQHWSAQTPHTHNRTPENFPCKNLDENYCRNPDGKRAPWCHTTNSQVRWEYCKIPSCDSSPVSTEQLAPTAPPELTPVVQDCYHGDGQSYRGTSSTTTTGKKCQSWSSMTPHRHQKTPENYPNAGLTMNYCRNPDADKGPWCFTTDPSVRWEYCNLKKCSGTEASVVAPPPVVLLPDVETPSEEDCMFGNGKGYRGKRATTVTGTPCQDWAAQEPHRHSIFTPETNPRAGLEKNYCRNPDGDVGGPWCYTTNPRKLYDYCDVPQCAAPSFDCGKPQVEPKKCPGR
Assay: Anti-plasmin activity (hydrolysis of TAME)
Type: biochemical
Settings: molar concentration inhibiting 50% of TAME hydrolysis; read-out: id50, Plasmin
I'd appreciate it if you marked entries Met when IC50 is lower than 1 µM and Not met when it is not.

**Query** Hello, I'm reviewing records and need to know if IC50 of `CC(C)(C)c1ccc(C(=O)Oc2ccc(C=CC(=N)N)cc2)cc1` is below 1 µM. Could you check?
**Result** Not met

**Query** Hello, I'm reviewing records and need to know if IC50 of `Cc1ccc(C(=O)Oc2ccc(C=CC(=N)N)cc2)cc1` is below 1 µM. Could you check?
**Result** Not met

**Query** Answer whether the compound `N=C(N)C=Cc1ccc(OC(=O)C=Cc2cccc(C(F)(F)F)c2)cc1` has IC50 strictly less than 1 µM
**Result** Not met

**Query** Is the reported IC50 for `N=C(N)C=Cc1ccc(OC(=O)c2ccc(NC(=N)N)cc2)cc1` strictly below 1 µM?
**Result** Met

**Query** Field: below-cutoff. Rule: recorded IC50 strictly less than 1 µM. Subject: `N=C(N)C=Cc1ccc(OC(=O)[C@H]2CC[C@H](CN)CC2)cc1`
**Result** Not met

**Query** Does the reported IC50 of the following compound sit strictly below 1 µM? `CN(C)c1ccc(C(=O)Oc2ccc(C=CC(=N)N)cc2)cc1`
**Result** Not met

**Query** Record `N=C(N)C=Cc1ccc(OC(=O)c2ccc(C=O)cc2)cc1` : is its IC50 strictly below 1 µM?
**Result** Met

**Query** Is the reported IC50 for `CCCCCCC(=O)Oc1ccc(C=CC(=N)N)cc1` strictly below 1 µM?
**Result** Not met

---

Molecular target: UniProtKB P00747
Experiment: Anti-plasmin activity (hydrolysis of TAME)
Format: biochemical
observable: IC50 (µM)
A number alone suffices; assume µM.

Please fill in: IC50 reported for N=C(N)C=Cc1ccc(OC(=O)Cc2ccccc2)cc1 [Compound 13, 4-(β-amidinoethenyl)phenyl phenylacetate] = 10

---

observable: IC50 (µM)
Report only the number, with the unit µM understood.

Known value: Thrombin (Bos taurus) IC50 of the compound N=C(N)C=Cc1ccc(OC(=O)c2ccccc2)cc1 [Compound 12, 4-(β-amidinoethenyl)-phenyl benzoate] equals 3

CC(C)Cc1ccc(C(C)C(=O)Oc2ccc(C=CC(=N)N)cc2)cc1 (centres unmarked) [Compound 14] tested on Thrombin (Bos taurus) gave IC50: 8

Form field IC50 for item CSc1ccc(C(=O)Oc2ccc(C=CC(=N)N)cc2)cc1 [Compound 28] on Thrombin (Bos taurus): 3

Record N=C(N)C=Cc1ccc(OC(=O)c2ccc(Cl)cc2)cc1 [Compound 39] ; system Thrombin (Bos taurus); IC50 = 2

Recorded IC50 for N=C(N)C=Cc1ccc(OC(=O)c2ccc(C=O)cc2)cc1 [Compound 30] on Thrombin (Bos taurus) was 0.6

---

Molecular target: UniProt P00736
Sequence (P00736 464-705 limits assumed): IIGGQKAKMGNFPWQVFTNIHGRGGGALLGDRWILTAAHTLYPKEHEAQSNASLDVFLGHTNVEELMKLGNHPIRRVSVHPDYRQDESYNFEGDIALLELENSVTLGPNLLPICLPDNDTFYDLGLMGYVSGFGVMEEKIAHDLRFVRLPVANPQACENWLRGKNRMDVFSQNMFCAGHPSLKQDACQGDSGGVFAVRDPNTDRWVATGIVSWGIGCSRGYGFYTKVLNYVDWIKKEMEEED
Sequence (P00736 18-463 partner limits assumed): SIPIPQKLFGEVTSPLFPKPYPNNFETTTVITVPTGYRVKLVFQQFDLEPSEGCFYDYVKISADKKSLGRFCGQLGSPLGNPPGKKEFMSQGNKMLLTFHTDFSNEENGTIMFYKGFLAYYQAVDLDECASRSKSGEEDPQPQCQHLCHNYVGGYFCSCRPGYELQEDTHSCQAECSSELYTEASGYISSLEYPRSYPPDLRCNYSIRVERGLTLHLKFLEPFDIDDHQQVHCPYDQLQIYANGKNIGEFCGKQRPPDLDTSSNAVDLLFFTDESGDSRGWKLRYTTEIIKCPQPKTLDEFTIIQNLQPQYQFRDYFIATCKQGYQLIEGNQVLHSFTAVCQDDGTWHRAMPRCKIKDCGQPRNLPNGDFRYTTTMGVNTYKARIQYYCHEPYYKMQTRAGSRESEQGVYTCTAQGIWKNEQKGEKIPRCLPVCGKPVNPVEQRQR
Assay: Anti-C1 esterase activity, C1r (hydrolysis of AAME)
Format: biochemical
Details: molar concentration inhibiting 50% of AAME hydrolysis; read-out: Anti-C1 activity, C1r id50
observable: pIC50
Would you please state pIC50, meaning minus log10 of the concentration in mol/L, as a bare number?

Kindly note the recorded pIC50 for `Cc1ccc(C(=O)Oc2ccc(C=CC(=N)N)cc2)cc1` , which is 6.00

Form: compound = `CN(C)c1ccc(C(=O)Oc2ccc(C=CC(=N)N)cc2)cc1` ; pIC50 = 5.00

The value of pIC50 measured for the compound `N=C(N)C=Cc1ccc(OC(=O)c2ccc(NC(=N)N)cc2)cc1` turned out to be 5.40

For reference, reported pIC50 for `CC=CC=CC(=O)Oc1ccc(C=CC(=N)N)cc1` stands at 5.30

# compound `N=C(N)C=Cc1ccc(OC(=O)c2ccc(C=O)cc2)cc1` ; its pIC50 = 6.00

Field pIC50 (entry `CC(C)(C)c1ccc(C(=O)Oc2ccc(C=CC(=N)N)cc2)cc1` ) reads 5.30

GET /value?item= `N=C(N)C=Cc1ccc(OC(=O)[C@H]2CC[C@H](CNC(=O)OCc3ccccc3)CC2)cc1` &field=pIC50 returns 5.30

The measured pIC50 associated with N=C(N)C=Cc1ccc(OC(=O)c2ccccc2)cc1 [Compound 12, 4-(β-amidinoethenyl)-phenyl benzoate] reads 6.10

Field pIC50 (entry CC(=O)N[C@@H](CC(C)C)C(=O)N[C@@H](CC(C)C)C(=O)N[C@H](C=O)CCCNC(=N)N [Leupeptin, reference compound] ) reads 3.70

Quick note, pIC50 for `CSc1ccc(C(=O)Oc2ccc(C=CC(=N)N)cc2)cc1` landed at 6.05

---

Target: Trypsin (Bos taurus, UniProt P00760)
Sequence (P00760 24-246): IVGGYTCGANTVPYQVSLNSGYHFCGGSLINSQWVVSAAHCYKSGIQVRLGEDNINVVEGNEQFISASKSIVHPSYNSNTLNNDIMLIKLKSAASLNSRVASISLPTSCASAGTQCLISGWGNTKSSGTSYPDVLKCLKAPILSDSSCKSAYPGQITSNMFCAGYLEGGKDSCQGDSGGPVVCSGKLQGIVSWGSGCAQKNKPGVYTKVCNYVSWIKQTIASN
Experiment: Anti-trypsin activity (hydrolysis of TAME)
Format: biochemical
observable: IC50 (nM)
Return type: number; implicit unit nM.

// N=C(N)C=Cc1ccc(OC(=O)Cc2ccccc2)cc1 [Compound 13, 4-(β-amidinoethenyl)phenyl phenylacetate] : IC50 value = 1000

Where do the numbers come from? From patent US4490388A.
